Experiment summary: AUC in BALB/c mouse plasma at 2.5 mg/kg, ip administered as single dose by LC/MS analysis
Format: ADME, organism-based
Design: dose 2.5 mg/kg, route intraperitoneal
Assign AUC to each entry below.
Give bare numbers, in µM·h.

Compound | AUC / µM·h
CN1C(=O)N[C@H]2[C@@H]3NC(=O)c4ccc(C(F)(F)F)n4[C@@H]3C[C@]21O | 12.9

Next compound, please.
Incoming: Consider the compound CN1C(=O)N[C@H]2[C@@H]3NC(=O)c4ccc(Br)n4[C@@H]3C[C@]21O (stereo in doubt; 1a) [AGELASTATIN A] and give its recorded AUC.
Outgoing: 2.95

* * *

Experiment summary: Antitumor activity against CLL4 cells isolated from CLL patient assessed as cell viability after 48 hrs by FACS analysis
Format: functional, cell-based
Condition label: Homo sapiens
pEC50: −log10 of the molar value.
Label rule, in plain words: pEC50 of 6 and up is label 1, under 6 is label 0.

Answered examples (4):
Compound | Discrete label
CN1C(=O)N[C@H]2[C@@H]3NC(=O)c4cc(Cl)c(Cl)n4[C@@H]3C[C@]21O | label 0
CN1C(=O)N[C@H]2[C@@H]3NC(=O)c4ccc(Cl)n4[C@@H]3C[C@]21O | label 0
CN1C(=O)N[C@H]2[C@@H]3NC(=O)c4ccc(C(F)(F)F)n4[C@@H]3C[C@]21O | label 1
CN1C(=O)N[C@H]2[C@@H]3NC(=O)c4ccc(I)n4[C@@H]3C[C@]21O | label 0

Incoming: Decide: is the reported value of pEC50 for Nc1nc(F)nc2c1ncn2[C@@H]1O[C@H](CO)[C@@H](O)[C@@H]1O [FLUDARABINE] equal to or greater than 6?
Outgoing: label 1

Incoming: Hi team, for CN1C(=O)N[C@H]2[C@@H]3NC(=O)c4ccc(C#N)n4[C@@H]3C[C@]21O , is the recorded pEC50 at or above 6?
Outgoing: label 0

Incoming: Does CN1C(=O)N[C@H]2[C@@H]3NC(=O)c4ccc(Br)n4[C@@H]3C[C@]21O (stereo in doubt; 1a) [AGELASTATIN A] have a reported pEC50 of at least 6?
Outgoing: label 1

* * *

Experiment summary: Drug recovery in human AB serum at 50 uM after 24 hrs by LC-MS method
Format: ADME, cell-free
Condition label: read-out: Drug recovery
Would you mind telling me the reported remaining at 24 h, 50 µM of each entry?
Give bare numbers, in %.

Compound | Value reported
CN1C(=O)N[C@H]2[C@@H]3NC(=O)c4ccc(C(F)(F)F)n4[C@@H]3C[C@]21O | 65

Now for the compound whose remaining at 24 h, 50 µM we want.
Incoming: Quick one: give measured remaining at 24 h, 50 µM for CN1C(=O)N[C@H]2[C@@H]3NC(=O)c4ccc(Br)n4[C@@H]3C[C@]21O (stereo in doubt; 1a)
Outgoing: 65

* * *

Experiment summary: Half life in BALB/c mouse plasma at 2.5 mg/kg, ip administered as single dose by LC/MS analysis
Format: ADME, organism-based
Design: dose 2.5 mg/kg, route intraperitoneal
Condition label: BALB/c, plasma
Endpoint name: half-life (h)
Numbers only, in h.

Incoming: Read the entry CN1C(=O)N[C@H]2[C@@H]3NC(=O)c4ccc(C(F)(F)F)n4[C@@H]3C[C@]21O and write its reported half-life.
Outgoing: 1.2

Source: ChEMBL document CHEMBL3297658
